Exercise: for every item that follows, state its recorded pEC50.
- measured target: CXCR3 (Homo sapiens, UniProt P49682)
- Construct: host or cells: CHO-K1 (cAMP Hunter CHOK1 CXCR3 Gi cell line)
- Sequence (P49682 1-368): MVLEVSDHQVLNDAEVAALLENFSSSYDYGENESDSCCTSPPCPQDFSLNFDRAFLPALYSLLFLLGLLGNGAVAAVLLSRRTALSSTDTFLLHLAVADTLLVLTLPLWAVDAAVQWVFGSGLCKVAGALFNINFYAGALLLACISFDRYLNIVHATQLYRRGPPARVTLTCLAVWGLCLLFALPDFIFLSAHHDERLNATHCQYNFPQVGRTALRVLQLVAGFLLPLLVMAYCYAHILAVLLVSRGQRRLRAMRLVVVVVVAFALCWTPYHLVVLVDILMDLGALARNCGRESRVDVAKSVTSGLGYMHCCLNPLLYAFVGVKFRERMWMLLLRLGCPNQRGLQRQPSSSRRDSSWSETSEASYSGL
- experimental details: CXCR3 cAMP agonist assay (cAMP Hunter CHOK1 CXCR3 Gi cell line, forskolin-stimulated, HitHunter cAMP detection)
- Format: cell-based
- measurement parameters: cAMP Hunter CHOK1 CXCR3 Gi cells, 20 μM forskolin, 30 minutes; read-out: Activity (CXCR3 cAMP agonist assay compound EC50)
pEC50: −log10 of the molar value.

[[record]]
compound = "COC[C@@H]1CCCN1C(=O)CCC(=O)N1Cc2ccccc2C[C@H]1C(=O)N[C@@H](CCN)C(=O)Nc1ccc(Cl)c(C)c1"
result = "6.60 to 7.30"

[[record]]
compound = "Cc1cc(NC(=O)[C@H](CCN)NC(=O)[C@@H]2Cc3ccccc3CN2C(=O)CCC(=O)NCC2CCOCC2)ccc1Cl"
result = "< 6.30"

[[record]]
compound = "O=C(NC1(C(=O)Nc2ccc(Cl)c(Cl)c2F)CCNCC1)[C@@H]1Cc2ccccc2CN1C(=O)CCC(=O)N1CCCC12CCC2"
result = "> 7.30"

[[record]]
compound = "Cc1cc(NC(=O)C(NC(=O)[C@@H]2Cc3ccccc3CN2C(=O)CCC(=O)c2ccccc2)C2CC[N+](C)(C)CC2)ccc1Cl (mixture of isomers)"
result = "> 7.30"

[[record]]
compound = "NCC[C@@H](NC(=O)[C@@H]1Cc2ccccc2CN1C(=O)CCC(=O)c1ccccc1)C(=O)Nc1ccc(Cl)c(Cl)c1F"
result = "6.30 to 6.60"

[[record]]
compound = "Cc1cc(NC(=O)C2(NC(=O)[C@@H]3Cc4ccccc4CN3C(=O)CCC(=O)c3ccccc3)CCN(CCO)CC2)ccc1Cl"
result = "6.60 to 7.30"

[[record]]
compound = "NCCCC[C@H](NC(=O)[C@@H]1Cc2ccccc2CN1C(=O)CCC(=O)c1ccccc1)C(=O)Nc1ccc(Cl)cc1F"
result = "6.60 to 7.30"

[[record]]
compound = "Cc1cc(NC(=O)[C@H](CCNCC(C)C)NC(=O)[C@@H]2Cc3ccccc3CN2C(=O)CCC(=O)c2ccccc2)ccc1Cl"
result = "> 7.30"

[[record]]
compound = "NCC[C@H](NC(=O)[C@@H]1Cc2ccccc2CN1C(=O)CCC(=O)c1ccccc1)C(=O)Nc1cccc(Cl)c1Cl"
result = "> 7.30"

[[record]]
compound = "Cc1cc(NC(=O)[C@H](CCN)NC(=O)[C@@H]2Cc3ccccc3CN2C(=O)CCC(=O)N2CCCC23CCC3)ccc1Cl"
result = "> 7.30"


Each compound below has a reported value. Please supply its pEC50.
1. COCCN(C)C(=O)CCC(=O)N1Cc2ccccc2C[C@H]1C(=O)N[C@@H](CCN)C(=O)Nc1ccc(Cl)c(C)c1
2. Cc1cc(NC(=O)[C@H](CCN)NC(=O)[C@@H]2Cc3ccccc3CN2C(=O)CCC(=O)N2CC(C(C)(C)O)C2)ccc1Cl
3. CC1(C)CCN(C(=O)CCC(=O)N2Cc3cc(F)ccc3C[C@H]2C(=O)N[C@@H](CCN)C(=O)Nc2ccc(Cl)c(Cl)c2F)CC1
4. Cc1cc(NC(=O)[C@H](CCN)NC(=O)[C@@H]2Cc3ccccc3CN2C(=O)CCC(=O)N2CCN(S(C)(=O)=O)CC2)ccc1Cl
5. Cc1cc(NC(=O)[C@H](CCN)NC(=O)[C@@H]2Cc3ccccc3CN2C(=O)CCC(=O)N2CCC(C(C)C)CC2)ccc1Cl
6. Cc1cc(NC(=O)[C@H](CCN)NC(=O)[C@H]2Cc3ccccc3CN2C(=O)CCC(=O)c2ccccc2)ncc1Cl

6.30 to 6.60
> 7.30
> 7.30
6.60 to 7.30
> 7.30
< 6.30

Each compound below has a reported value. Please supply its pEC50.
1. Cc1cc(NC(=O)[C@H](CCN)NC(=O)[C@@H]2Cc3ccccc3CN2C(=O)CCC(=O)N2CC(C)(c3ccccc3)C2)ccc1Cl
2. Cc1cc(NC(=O)C(CCC2(N(C)C)COC2)NC(=O)[C@@H]2Cc3ccccc3CN2C(=O)CCC(=O)c2ccccc2)ccc1Cl (stereo partly drawn)

> 7.30
6.60 to 7.30
